Reported QH by item:
Tested on: hepatocytes
Assay: Metabolic stability assay in hepatocyte suspension
Assay type: in vitro ADME
Settings: 1 μM test compound, Table 4

# molecule_smiles, readout_units, relation_symbol, QH
measured = [
    ("N=C(N)NC(=O)OCc1ccnc(N2CCC(C3CCN(S(N)(=O)=O)CC3)CC2)c1F", "%", "=", 5),
    ("N=C(N)NC(=O)OCc1ccnc(N2CCN(c3cncnc3)CC2)c1F", "%", "=", 6),
    ("Cc1cc(N2CCN(c3nccc(COC(=O)NC(=N)N)c3F)CC2)ccn1", "%", "<", 4),
    ("Cc1cccc(N2CCN(c3nccc(COC(=O)NC(=N)N)c3F)CC2)c1", "%", "=", 23),
    ("CS(=O)(=O)c1ccc(N2CCN(c3nccc(COC(=O)NC(=N)N)c3F)CC2)c(F)c1", "%", "=", 8),
    ("N#Cc1cccc(N2CCN(c3nccc(COC(=O)NC(=N)N)c3F)CC2)c1", "%", "=", 14),
    ("CN(C)C(=O)c1ccc(N2CCN(c3nccc(COC(=O)NC(=N)N)c3F)CC2)nc1", "%", "<", 4),
    ("COc1ccc(N2CCN(c3nccc(COC(=O)NC(=N)N)c3F)CC2)cc1", "%", "=", 23),
]

---

Test system: hepatocytes
Assay: Metabolic stability assay in hepatocyte suspension
Assay type: in vitro ADME
Conditions: 1 μM test compound, Table 4

# molecule, QH, %
rows = [
    ("N=C(N)NC(=O)OCc1ccnc(N2CCC(c3ccc(F)cc3)CC2)c1F [Example 1.041]", 12),
    ("N=C(N)NC(=O)OCc1ccnc(N2CCC(c3ccncc3)CC2)c1F [Example 1.010]", 16),
    ("N#Cc1ccc(N2CCN(c3nccc(COC(=O)NC(=N)N)c3F)CC2)c(F)c1 [Example 1.083]", 11),
    ("CC(=O)N1CCC(C2CN(c3cccc(COC(=O)NC(=N)N)n3)C2)CC1 [Example 1.016]", 6),
    ("N=C(N)NC(=O)OCc1ccnc(N2CC=C(c3ccc(F)cc3)CC2)c1F [Example 1.037]", 20),
    ("COc1ncc(N2CCN(c3cccc(COC(=O)NC(=N)N)n3)CC2)cn1 [Example 1.036]", 16),
    ("N#CC1(c2ccccc2)CCN(c2nccc(COC(=O)NC(=N)N)c2F)CC1 [Example 1.050]", 10),
    ("COc1ccc(C2CCN(c3nccc(COC(=O)NC(=N)N)c3F)CC2)cc1 [Example 1.065]", 40),
]

---

Molecular target: UniProtKB Q16853
Sequence (Q16853 whole entry): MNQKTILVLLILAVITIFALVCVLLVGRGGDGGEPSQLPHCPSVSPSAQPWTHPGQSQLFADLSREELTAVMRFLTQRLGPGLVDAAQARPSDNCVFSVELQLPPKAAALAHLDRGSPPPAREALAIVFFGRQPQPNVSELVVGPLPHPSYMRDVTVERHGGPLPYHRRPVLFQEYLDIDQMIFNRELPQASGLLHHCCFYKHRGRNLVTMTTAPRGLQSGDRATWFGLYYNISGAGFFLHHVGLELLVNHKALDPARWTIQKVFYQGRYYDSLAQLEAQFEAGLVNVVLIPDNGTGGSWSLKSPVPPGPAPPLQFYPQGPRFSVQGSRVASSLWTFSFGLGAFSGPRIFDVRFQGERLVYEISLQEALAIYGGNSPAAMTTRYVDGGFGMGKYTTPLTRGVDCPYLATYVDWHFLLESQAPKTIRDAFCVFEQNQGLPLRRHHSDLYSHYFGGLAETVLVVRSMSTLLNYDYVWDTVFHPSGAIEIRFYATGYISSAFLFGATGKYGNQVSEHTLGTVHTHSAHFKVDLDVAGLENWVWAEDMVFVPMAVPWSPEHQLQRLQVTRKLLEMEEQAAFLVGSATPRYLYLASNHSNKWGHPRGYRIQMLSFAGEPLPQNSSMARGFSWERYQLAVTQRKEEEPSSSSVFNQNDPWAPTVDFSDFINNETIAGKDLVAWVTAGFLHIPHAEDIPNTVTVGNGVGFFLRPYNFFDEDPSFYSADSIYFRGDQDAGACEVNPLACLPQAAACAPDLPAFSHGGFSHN
Experiment: MAO-Glo AOC3 assay (recombinant CHO cells overexpressing AOC3)
Type: biochemical
Conditions: Table 1, read-out: AOC3 IC50
pIC50: −log10 of the molar value.
Parameter: pIC50. Scope: all listed entries.
measured_attribute: pIC50

# molecule_smiles, measured_attribute, quantitative_result
rows = [
    ("Cc1ccc(N2CCN(c3nccc(COC(=O)NC(=N)N)c3F)CC2)cc1C", "pIC50", 7.89),
    ("COc1ncc(N2CCN(c3nccc(COC(=O)NC(=N)N)n3)CC2)cn1", "pIC50", 8.15),
    ("CCOc1ccc(C2CCN(c3nccc(COC(=O)NC(=N)N)c3F)CC2)cn1", "pIC50", 7.92),
    ("N=C(N)NC(=O)OCc1ccnc(N2CCC(N3CCOCC3)CC2)c1F", "pIC50", 7.04),
    ("N=C(N)NC(=O)OCc1ccnc(N2CCN(c3ccccn3)CC2)c1F", "pIC50", 7.21),
]
